- EXPERIMENTAL_SYSTEM: Receptor tyrosine-protein kinase erbB-2 (Homo sapiens)
- Sequence (P04626 whole entry): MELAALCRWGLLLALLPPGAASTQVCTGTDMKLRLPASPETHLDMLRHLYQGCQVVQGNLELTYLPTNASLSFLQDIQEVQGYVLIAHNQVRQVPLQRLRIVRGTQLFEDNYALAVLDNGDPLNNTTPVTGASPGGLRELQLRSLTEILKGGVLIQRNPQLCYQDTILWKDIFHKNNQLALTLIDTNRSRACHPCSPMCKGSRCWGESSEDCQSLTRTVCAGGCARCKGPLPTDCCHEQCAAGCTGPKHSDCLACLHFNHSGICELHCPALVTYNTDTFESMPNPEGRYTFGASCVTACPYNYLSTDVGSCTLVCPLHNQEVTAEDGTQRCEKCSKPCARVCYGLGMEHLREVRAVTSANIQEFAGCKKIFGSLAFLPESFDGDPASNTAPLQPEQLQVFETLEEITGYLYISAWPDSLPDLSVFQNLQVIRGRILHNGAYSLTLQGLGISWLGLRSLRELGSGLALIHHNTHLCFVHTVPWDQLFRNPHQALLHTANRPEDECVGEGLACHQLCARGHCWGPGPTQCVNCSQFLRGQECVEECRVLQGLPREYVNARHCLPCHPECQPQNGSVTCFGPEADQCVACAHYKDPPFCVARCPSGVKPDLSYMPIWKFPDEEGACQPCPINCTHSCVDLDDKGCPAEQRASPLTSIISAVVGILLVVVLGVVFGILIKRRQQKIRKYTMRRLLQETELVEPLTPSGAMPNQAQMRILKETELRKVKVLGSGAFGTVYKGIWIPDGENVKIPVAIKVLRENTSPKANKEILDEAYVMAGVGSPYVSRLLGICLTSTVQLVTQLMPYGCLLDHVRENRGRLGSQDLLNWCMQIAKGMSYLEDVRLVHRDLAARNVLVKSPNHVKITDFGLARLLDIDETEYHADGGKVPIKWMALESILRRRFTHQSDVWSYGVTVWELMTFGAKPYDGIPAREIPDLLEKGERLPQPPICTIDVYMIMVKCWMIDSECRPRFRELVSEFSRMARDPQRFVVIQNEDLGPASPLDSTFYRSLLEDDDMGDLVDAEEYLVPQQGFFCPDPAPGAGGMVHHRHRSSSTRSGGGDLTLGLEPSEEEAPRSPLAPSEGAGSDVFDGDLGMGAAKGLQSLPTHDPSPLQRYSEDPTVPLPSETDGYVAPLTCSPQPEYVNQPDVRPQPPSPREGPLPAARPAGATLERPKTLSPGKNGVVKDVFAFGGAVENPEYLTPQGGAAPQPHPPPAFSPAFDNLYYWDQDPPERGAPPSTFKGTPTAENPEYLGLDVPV
- PROTOCOL_SUMMARY: Inhibition of autophosphorylation of human Her (p185erbB) tyrosine kinase expressed in SKOV-3 cells
Please provide measured pIC50 for the entries that follow.
To interpret pIC50, take it as minus log10 of a concentration measured in moles per litre.

Q: Give its pIC50 value. Item: Cc1cc(C(=O)NCCN2CCOCC2)[nH]c1/C=C1\C(=O)Nc2ncnc(Nc3ccc4c(ccn4Cc4ccccc4)c3)c21
Ans: 7.40

Q: Report pIC50 for C#Cc1cccc(Nc2ncnc3c2/C(=C/c2[nH]c(C(=O)NCCN4CCOCC4)cc2C)C(=O)N3)c1 please.
Ans: 7.40

Q: Which pIC50 reading was recorded for the compound CCN(CC)CCNC(=O)c1cc(C)c(/C=C2\C(=O)Nc3ncnc(Nc4ccc(F)c(Cl)c4)c32)[nH]1 ?
Ans: 6.70

Q: pIC50 lookup needed for CCN1CCN(C(=O)c2cc(C)c(/C=C3\C(=O)Nc4ncnc(Nc5ccc(F)c(Cl)c5)c43)[nH]2)CC1 , thanks.
Ans: 7.00

Q: Param item = Cc1cc(C)c(/C=C2\C(=O)Nc3ncnc(Nc4ccc(F)c(Cl)c4)c32)[nH]1 ; retrieve measured pIC50.
Ans: 6.52

====

I'd be grateful if you could share measured pIC50 for these entries.
- EXPERIMENTAL_SYSTEM: Epidermal growth factor receptor (Homo sapiens)
- Sequence (P00533 whole entry): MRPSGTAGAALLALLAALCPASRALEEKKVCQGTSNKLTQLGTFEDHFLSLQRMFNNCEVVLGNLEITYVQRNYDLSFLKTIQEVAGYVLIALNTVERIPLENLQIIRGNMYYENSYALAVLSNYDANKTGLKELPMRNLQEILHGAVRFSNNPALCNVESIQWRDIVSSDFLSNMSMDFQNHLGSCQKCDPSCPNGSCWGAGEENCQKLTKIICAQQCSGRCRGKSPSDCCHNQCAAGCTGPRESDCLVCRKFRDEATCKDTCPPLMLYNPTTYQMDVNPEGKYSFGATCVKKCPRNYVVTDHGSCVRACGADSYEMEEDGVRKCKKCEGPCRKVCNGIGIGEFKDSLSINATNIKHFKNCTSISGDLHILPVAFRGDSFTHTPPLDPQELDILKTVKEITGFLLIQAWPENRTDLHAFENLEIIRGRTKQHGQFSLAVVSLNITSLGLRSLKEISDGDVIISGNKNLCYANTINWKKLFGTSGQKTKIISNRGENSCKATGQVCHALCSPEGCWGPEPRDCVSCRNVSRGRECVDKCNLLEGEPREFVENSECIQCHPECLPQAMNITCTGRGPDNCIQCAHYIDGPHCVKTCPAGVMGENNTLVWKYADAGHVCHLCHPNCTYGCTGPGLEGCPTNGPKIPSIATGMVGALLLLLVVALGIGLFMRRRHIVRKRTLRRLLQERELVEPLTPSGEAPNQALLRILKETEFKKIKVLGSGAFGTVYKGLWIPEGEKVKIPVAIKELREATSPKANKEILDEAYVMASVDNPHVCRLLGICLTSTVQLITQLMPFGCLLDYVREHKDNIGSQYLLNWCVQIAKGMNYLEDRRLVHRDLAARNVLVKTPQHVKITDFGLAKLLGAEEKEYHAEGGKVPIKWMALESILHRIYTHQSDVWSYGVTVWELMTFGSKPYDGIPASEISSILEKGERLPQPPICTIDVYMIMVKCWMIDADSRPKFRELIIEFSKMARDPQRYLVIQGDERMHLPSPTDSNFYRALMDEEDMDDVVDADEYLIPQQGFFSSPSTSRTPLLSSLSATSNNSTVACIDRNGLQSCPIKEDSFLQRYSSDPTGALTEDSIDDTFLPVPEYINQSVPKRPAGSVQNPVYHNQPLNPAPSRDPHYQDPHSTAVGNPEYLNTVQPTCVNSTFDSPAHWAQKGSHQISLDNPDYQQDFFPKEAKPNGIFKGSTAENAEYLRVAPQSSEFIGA
- PROTOCOL_SUMMARY: Inhibition of autophosphorylation of human epidermal growth factor-receptor (EGF-R) expressed in A431 cells
- Format: functional, cell-based, A-431
Friendly reminder that pIC50 comes from taking -log10 of the concentration in mol/L.

Q: Query (compound): CCN(CC)CCNC(=O)c1cc(C)c(/C=C2\C(=O)Nc3ncnc(Nc4ccc(Cl)cc4F)c32)[nH]1 ; field requested: pIC50
Ans: 6.30

Q: # lookup: pIC50 of Cc1cc(C(=O)N2CCOCC2)[nH]c1/C=C1\C(=O)Nc2ncnc(Nc3ccc4c(ccn4Cc4ccccc4)c3)c21
Ans: 7.00

Q: Which measured pIC50 value corresponds to CCN(CC)CCNC(=O)c1cc(C)c(/C=C2\C(=O)Nc3ncnc(Nc4ccc(F)c(Cl)c4)c32)[nH]1 ?
Ans: 6.70

Q: # pIC50 lookup, item Cc1cc(C)c(/C=C2\C(=O)Nc3ncnc(Nc4ccc(F)c(Cl)c4)c32)[nH]1
Ans: 6.52

Q: If you can, please state the reported pIC50 value of Cc1cc(C(=O)NCCN2CCOCC2)[nH]c1/C=C1\C(=O)Nc2ncnc(Nc3ccc4c(ccn4Cc4ccccc4)c3)c21 .
Ans: 6.70

Q: Which pIC50 is listed for Cc1cc(C(=O)N2CCOCC2)[nH]c1/C=C1\C(=O)Nc2ncnc(Nc3ccc4c(c3)CCC4)c21 ?
Ans: 5.30

Q: What measured pIC50 goes with Cc1cc(C(=O)N2CCOCC2)[nH]c1/C=C1\C(=O)Nc2ncnc(Nc3ccc4c(cnn4Cc4ccccc4)c3)c21 ?
Ans: 7.00

Q: So what does the record say about pIC50 for Cc1cc(C(=O)N2CCN(C)CC2)[nH]c1/C=C1\C(=O)Nc2ncnc(Nc3ccc(F)c(Cl)c3)c21 ?
Ans: 7.00

====

The reader will find IC50 measurements below, all made with Platelet-derived growth factor receptor beta (Homo sapiens, UniProt P09619).
Sequence (P09619 whole entry): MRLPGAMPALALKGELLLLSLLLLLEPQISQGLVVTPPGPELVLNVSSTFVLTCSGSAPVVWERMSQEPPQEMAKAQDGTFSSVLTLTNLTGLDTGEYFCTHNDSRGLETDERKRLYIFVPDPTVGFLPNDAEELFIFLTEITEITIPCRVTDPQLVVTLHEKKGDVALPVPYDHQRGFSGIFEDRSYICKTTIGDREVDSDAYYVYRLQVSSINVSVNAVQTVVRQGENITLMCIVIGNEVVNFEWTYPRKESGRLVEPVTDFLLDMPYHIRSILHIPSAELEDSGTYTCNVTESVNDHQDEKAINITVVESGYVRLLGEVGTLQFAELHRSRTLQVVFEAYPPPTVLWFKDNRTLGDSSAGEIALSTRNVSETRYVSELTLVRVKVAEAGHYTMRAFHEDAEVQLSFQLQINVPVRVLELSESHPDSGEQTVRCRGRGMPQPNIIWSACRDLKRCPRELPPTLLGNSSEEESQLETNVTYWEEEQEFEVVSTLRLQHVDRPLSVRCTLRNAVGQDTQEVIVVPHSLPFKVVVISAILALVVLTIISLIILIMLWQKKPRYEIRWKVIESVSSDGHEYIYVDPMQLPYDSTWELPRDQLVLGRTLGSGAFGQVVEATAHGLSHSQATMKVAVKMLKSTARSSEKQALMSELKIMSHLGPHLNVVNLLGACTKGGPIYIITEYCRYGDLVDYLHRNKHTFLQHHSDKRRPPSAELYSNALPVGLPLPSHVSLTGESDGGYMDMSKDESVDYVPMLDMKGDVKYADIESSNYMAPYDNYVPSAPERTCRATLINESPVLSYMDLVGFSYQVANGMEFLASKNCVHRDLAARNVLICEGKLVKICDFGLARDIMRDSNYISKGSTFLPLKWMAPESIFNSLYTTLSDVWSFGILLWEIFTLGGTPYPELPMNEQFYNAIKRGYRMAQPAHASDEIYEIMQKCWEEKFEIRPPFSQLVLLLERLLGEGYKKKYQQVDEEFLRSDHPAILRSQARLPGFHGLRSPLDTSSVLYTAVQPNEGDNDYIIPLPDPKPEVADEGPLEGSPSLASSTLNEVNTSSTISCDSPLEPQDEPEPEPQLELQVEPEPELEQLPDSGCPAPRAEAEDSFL

Q: May I ask what IC50 has been recorded for Cc1cc(C(=O)N2CCOCC2)[nH]c1/C=C1\C(=O)Nc2ncnc(Nc3ccc4c(cnn4Cc4ccccc4)c3)c21 ?
Ans: > 10 µM

Q: Which value of IC50 has been reported for Cc1cc(C(=O)NCCN2CCOCC2)[nH]c1/C=C1\C(=O)Nc2ncnc(Nc3ccc4c(ccn4Cc4ccccc4)c3)c21 in the records?
Ans: > 100 µM

Q: Suppose we examine the compound CCN1CCN(C(=O)c2cc(C)c(/C=C3\C(=O)Nc4ncnc(Nc5ccc(F)c(Cl)c5)c43)[nH]2)CC1 ; what IC50 value has been reported?
Ans: > 20 µM

Q: Name the recorded IC50 for Cc1[nH]c(/C=C2\C(=O)Nc3ncnc(Nc4ccc(F)c(Cl)c4)c32)c(C)c1CCC(=O)O .
Ans: > 20 µM

Q: Returns the measured IC50 for the input compound. Input: Cc1cc(C(=O)N2CC(C)NC(C)C2)[nH]c1/C=C1\C(=O)Nc2ncnc(Nc3ccc(F)c(Cl)c3)c21 (stereo not drawn)
Ans: > 20 µM

Q: Can you share its IC50? I mean this compound: Cc1cc(C(=O)N2CCOCC2)[nH]c1/C=C1\C(=O)Nc2ncnc(Nc3ccc4c(ccn4Cc4ccccc4)c3)c21
Ans: > 20 µM

Q: For the compound shown here, Cc1cc(C(=O)NCCN2CCOCC2)[nH]c1/C=C1\C(=O)Nc2ncnc(Nc3ccc(F)c(Cl)c3)c21 , give the reported IC50.
Ans: > 100 µM

Q: Need IC50 of Cc1cc(C)c(/C=C2\C(=O)N(C)c3ncnc(Nc4ccc(F)c(Cl)c4)c32)[nH]1 , thanks.
Ans: > 20 µM

====

Exercise: state measured IC50 for each of the compounds provided.
- EXPERIMENTAL_SYSTEM: Vascular endothelial growth factor receptor 2 (Homo sapiens, UniProt P35968)
- Sequence (P35968 whole entry): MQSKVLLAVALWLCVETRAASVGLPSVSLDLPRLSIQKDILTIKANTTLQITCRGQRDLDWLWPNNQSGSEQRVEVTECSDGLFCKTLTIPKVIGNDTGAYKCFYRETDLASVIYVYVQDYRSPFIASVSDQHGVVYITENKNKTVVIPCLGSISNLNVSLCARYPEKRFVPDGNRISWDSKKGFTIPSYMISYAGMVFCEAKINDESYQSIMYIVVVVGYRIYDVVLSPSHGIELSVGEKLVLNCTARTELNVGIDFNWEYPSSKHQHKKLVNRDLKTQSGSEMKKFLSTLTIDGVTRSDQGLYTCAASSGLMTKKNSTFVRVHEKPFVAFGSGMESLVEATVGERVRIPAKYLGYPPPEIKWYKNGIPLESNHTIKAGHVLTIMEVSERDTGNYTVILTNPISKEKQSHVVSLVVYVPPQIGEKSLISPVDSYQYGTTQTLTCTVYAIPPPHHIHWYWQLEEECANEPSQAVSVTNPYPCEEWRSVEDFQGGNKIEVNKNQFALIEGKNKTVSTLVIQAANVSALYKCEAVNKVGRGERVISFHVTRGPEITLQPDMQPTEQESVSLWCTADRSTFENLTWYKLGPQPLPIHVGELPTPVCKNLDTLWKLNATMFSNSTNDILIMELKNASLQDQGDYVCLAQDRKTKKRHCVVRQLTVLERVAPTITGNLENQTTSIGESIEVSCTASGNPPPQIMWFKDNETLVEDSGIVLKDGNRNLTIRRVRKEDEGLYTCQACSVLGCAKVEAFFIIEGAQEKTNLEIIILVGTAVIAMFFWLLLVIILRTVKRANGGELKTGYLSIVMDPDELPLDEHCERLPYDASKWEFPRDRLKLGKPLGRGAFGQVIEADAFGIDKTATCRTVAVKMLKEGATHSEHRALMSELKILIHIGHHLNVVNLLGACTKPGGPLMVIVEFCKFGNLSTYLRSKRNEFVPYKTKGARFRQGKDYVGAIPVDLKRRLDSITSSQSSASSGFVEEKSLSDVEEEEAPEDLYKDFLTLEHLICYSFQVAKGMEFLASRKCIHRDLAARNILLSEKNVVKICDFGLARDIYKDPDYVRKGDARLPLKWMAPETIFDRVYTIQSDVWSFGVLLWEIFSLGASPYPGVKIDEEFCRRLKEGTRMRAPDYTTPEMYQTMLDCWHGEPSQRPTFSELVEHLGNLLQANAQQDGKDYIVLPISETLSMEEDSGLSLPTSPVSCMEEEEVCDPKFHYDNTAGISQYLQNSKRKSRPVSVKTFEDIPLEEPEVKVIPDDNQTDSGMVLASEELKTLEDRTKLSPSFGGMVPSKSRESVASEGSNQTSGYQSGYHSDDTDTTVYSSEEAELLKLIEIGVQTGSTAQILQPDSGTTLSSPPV
- PROTOCOL_SUMMARY: Inhibition of tyrosine phosphorylation in cells expressing human VEGFR2 (Flk-1/KDR) kinase
# unit: µM | format: bare number

Q: Recorded IC50 of Cc1cc(C(=O)NCCN2CCOCC2)[nH]c1/C=C1\C(=O)N(C)c2ncnc(Nc3ccc(F)c(Cl)c3)c21 , please.
Ans: 10.1

Q: Using the record for Cc1cc(C(=O)N2CC(C)NC(C)C2)[nH]c1/C=C1\C(=O)Nc2ncnc(Nc3ccc(F)c(Cl)c3)c21 (stereo not drawn) , report its IC50.
Ans: 1.63

Q: Can you look up the measured IC50 of Cc1cc(C)c(/C=C2\C(=O)Nc3ncnc(Nc4ccc(F)c(Cl)c4)c32)[nH]1 for me?
Ans: 16.5

Q: Find the recorded IC50 belonging to Cc1cc(C(=O)NCCN2CCOCC2)[nH]c1/C=C1\C(=O)Nc2ncnc(Nc3ccc4c(ccn4Cc4ccccc4)c3)c21 and report it.
Ans: 3.47

Q: Dear colleague, I am looking for the recorded IC50 of the following compound: CCN(CC)CCNC(=O)c1cc(C)c(/C=C2\C(=O)Nc3ncnc(Nc4ccc(F)c(Cl)c4)c32)[nH]1
Ans: 0.3

Q: Using the record for Cc1cc(C(=O)O)[nH]c1/C=C1\C(=O)Nc2ncnc(Nc3ccc(F)c(Cl)c3)c21 , report its IC50.
Ans: 8.92

Q: Given Cc1cc(C)c(/C=C2\C(=O)N(C)c3ncnc(Nc4ccc(F)c(Cl)c4)c32)[nH]1 , state its recorded IC50.
Ans: 5.82
